EXPERIMENTAL CONDITIONS: [M+H]+; instrument: TW; calibrated with polyalanine and drug standards
RESULT TYPE: collision cross section (N2) (Å²)

A: CCN(CC)CCNc1ccc(CO)c2sc3ccccc3c(=O)c12 [HYCANTHONE]
B: Nc1nccs1 [AMINOTHIAZOLE]
Compare A and B and name the one whose reported collision cross section (N2) is smaller. Refer to your chosen entry by its label in the reply. B

====

EXPERIMENTAL CONDITIONS: [M+H]+; instrument: TW; Major Mix IMS/Tof Calibration Kit (Waters)
RESULT TYPE: collision cross section (N2) (Å²)

- COMPOUND: "O=C(O)c1cc(/N=N/c2ccc(S(=O)(=O)Nc3ccccn3)cc2)ccc1O"
  EXPERIMENTAL VALUE: 199.7
- COMPOUND: "COc1ccc([C@@H]2Sc3ccccc3N(CCN(C)C)C(=O)[C@@H]2OC(C)=O)cc1"
  EXPERIMENTAL VALUE: 197.8
- COMPOUND: "COCCOC(=O)C1=C(C)NC(C)=C(C(=O)OC(C)C)C1c1cccc([N+](=O)[O-])c1 (stereo unspecified)"
  EXPERIMENTAL VALUE: 197.8
- COMPOUND: "CCNC(C)Cc1ccc2c(c1)OCO2 (stereo unspecified)"
  EXPERIMENTAL VALUE: 147.5
- COMPOUND: "Cc1cc(=O)n(-c2ccccc2)n1C"
  EXPERIMENTAL VALUE: 137.7
- COMPOUND: "NCC(CC(=O)O)c1ccc(Cl)cc1 (stereo unspecified)"
  EXPERIMENTAL VALUE: 149.2
- COMPOUND: "CN1C(=O)C(O)N=C(c2ccccc2Cl)c2cc(Cl)ccc21 (stereo unspecified)"
  EXPERIMENTAL VALUE: 169.5
- COMPOUND: "C=CCc1ccccc1OCC(O)CNC(C)C (stereo unspecified)"
  EXPERIMENTAL VALUE: 159.5
- COMPOUND: "CCOC(=O)c1ncn2c1CN(C)C(=O)c1cc(F)ccc1-2"
  EXPERIMENTAL VALUE: 165.8
- COMPOUND: "Cc1[nH]c(=O)c(C#N)cc1-c1ccncc1"
  EXPERIMENTAL VALUE: 150.4
- COMPOUND: "CC(C)(C)c1ccc(C(O)CCCN2CCC(C(O)(c3ccccc3)c3ccccc3)CC2)cc1 (stereo unspecified)"
  EXPERIMENTAL VALUE: 229.8
- COMPOUND: "CCC(Cc1ccc2c(c1)OCO2)NC (stereo unspecified)"
  EXPERIMENTAL VALUE: 148.4
- COMPOUND: "c1ccc2c(c1)Cc1cccnc1N1CCNCC21 (stereo unspecified)"
  EXPERIMENTAL VALUE: 156.9
- COMPOUND: "O=c1[nH]ccn1CCN1CCC(c2cn(-c3ccc(F)cc3)c3ccc(Cl)cc23)CC1 [Sertindol-M dehydro]"
  EXPERIMENTAL VALUE: 213.8
- COMPOUND: "COc1ccc(CC(C)NCC(O)c2ccc(O)c(NC=O)c2)cc1 (stereo unspecified)"
  EXPERIMENTAL VALUE: 178.6
- COMPOUND: "CCCNCC(O)COc1ccccc1C(=O)CCc1ccccc1 (stereo unspecified)"
  EXPERIMENTAL VALUE: 178.5
- COMPOUND: "CCN1CCCC1CNC(=O)c1cc(S(N)(=O)=O)ccc1OC (stereo unspecified) [Sulpiride]"
  EXPERIMENTAL VALUE: 184.3
- COMPOUND: "CN1[C@@H]2C[C@@H](OC(=O)[C@H](CO)c3ccccc3)C[C@H]1[C@@H]1O[C@@H]12"
  EXPERIMENTAL VALUE: 171.1
- COMPOUND: "Clc1ccc2c(c1)N=C(N1CCNCC1)c1ccccc1N2"
  EXPERIMENTAL VALUE: 173.8
- COMPOUND: "Oc1ccc2c3c1OC1C(O)C=CC4C(C2)NCCC341 (stereo unspecified)"
  EXPERIMENTAL VALUE: 161.5
- COMPOUND: "CN/C(=C\\[N+](=O)[O-])NCCSCc1csc(CN(C)C)n1"
  EXPERIMENTAL VALUE: 168.4
- COMPOUND: "CN1c2ccccc2C(NCCCCCCC(=O)O)c2ccc(Cl)cc2S1(=O)=O (stereo unspecified)"
  EXPERIMENTAL VALUE: 197
- COMPOUND: "COc1ccc2c(c1OC)C(=O)O[C@@H]2[C@H]1c2c(cc3c(c2OC)OCO3)CCN1C"
  EXPERIMENTAL VALUE: 194.3
- COMPOUND: "CC(CN(C)C)CN1c2ccccc2CCc2ccccc21 (stereo unspecified)"
  EXPERIMENTAL VALUE: 171.2
- COMPOUND: "FC(F)(F)c1cccc(N2CCNCC2)c1"
  EXPERIMENTAL VALUE: 151.1
- COMPOUND: "CC(=O)O[C@H]1C=C[C@H]2[C@H]3Cc4ccc(O)c5c4[C@@]2(CCN3C)[C@H]1O5"
  EXPERIMENTAL VALUE: 175.1
- COMPOUND: "Fc1ccc([C@@H]2CCNC[C@H]2COc2ccc3c(c2)OCO3)cc1"
  EXPERIMENTAL VALUE: 183.2
- COMPOUND: "CN1CCN2c3ccccc3Cc3ccccc3C2C1 (stereo unspecified)"
  EXPERIMENTAL VALUE: 164.5
- COMPOUND: "Clc1ccc(C(c2ccccc2)N2CCNCC2)cc1 (stereo unspecified)"
  EXPERIMENTAL VALUE: 168.4
- COMPOUND: "CCOC(=O)C1=C(COCCN)NC(C)=C(C(=O)OC)C1c1ccccc1Cl (stereo unspecified)"
  EXPERIMENTAL VALUE: 188
- COMPOUND: "C(=C\\c1ccccc1)/CN1CCN(C(c2ccccc2)c2ccccc2)CC1"
  EXPERIMENTAL VALUE: 206.2
- COMPOUND: "CC(C)NC(=N)NC(=N)Nc1ccc(Cl)cc1"
  EXPERIMENTAL VALUE: 161.3
- COMPOUND: "OCc1nnc2n1-c1ccc(Cl)cc1C(c1ccccc1)=NC2 [Alprazolam-M alpha-Hydroxy]"
  EXPERIMENTAL VALUE: 173.3
- COMPOUND: "OC(CCN1CCCC1)(c1ccccc1)C1CCCCC1 (stereo unspecified)"
  EXPERIMENTAL VALUE: 172.6
- COMPOUND: "CC(C)(C)NCC(O)c1ccc(O)c(CO)c1 (stereo unspecified)"
  EXPERIMENTAL VALUE: 160
- COMPOUND: "OC(Cn1cncn1)(Cn1cncn1)c1ccc(F)cc1F"
  EXPERIMENTAL VALUE: 163.9
